- experimental-target: human glucagon receptor (human) (UniProt P47871)
- Sequence (P47871 26-477): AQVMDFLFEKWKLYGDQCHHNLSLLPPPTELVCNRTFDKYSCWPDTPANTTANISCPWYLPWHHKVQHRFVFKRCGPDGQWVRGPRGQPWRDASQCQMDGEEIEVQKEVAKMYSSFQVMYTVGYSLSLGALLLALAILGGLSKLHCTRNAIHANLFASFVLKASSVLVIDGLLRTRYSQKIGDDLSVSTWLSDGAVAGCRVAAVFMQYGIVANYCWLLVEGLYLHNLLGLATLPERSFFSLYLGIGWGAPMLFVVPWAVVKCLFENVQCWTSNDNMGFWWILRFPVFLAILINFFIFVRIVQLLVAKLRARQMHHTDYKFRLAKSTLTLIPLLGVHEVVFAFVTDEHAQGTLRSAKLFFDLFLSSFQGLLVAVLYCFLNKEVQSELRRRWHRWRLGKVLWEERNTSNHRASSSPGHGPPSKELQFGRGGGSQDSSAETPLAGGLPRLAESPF
- assay-info: cell-based or functional assay
Non-standard residues stand in square brackets, D forms with d. No end group written: not given here. Phe(4-CN) = N#Cc1ccc(C[C@H](N)C(=O)O)cc1; αMePhe(2-F) = C[C@](N)(Cc1ccccc1F)C(=O)O; Aib = CC(C)(N)C(=O)O
property-measured: Relative cAMP EC50 (nM)
Answers are plain numbers, in nM.

Check out these entries, answers already filled in.
Field Relative cAMP EC50 (entry YXQGTXTSDXSILLDKKAQXAFIEYLEEGGPSSGAPPPSGGGE (non-natural residues; Lys acylated C18 diacid; C-terminal amide; synthetic construct; SITE 2: note = 2-Aminoisobutyric Acid; SITE 6: note = alpha-methyl-2-fluoro-L-phenylalanine; SITE 10: note = 3-(4-Pyridyl)-L-alanine; SITE 17: note = Lysine is chemically modified through conjugation of the epsilon-amino group of the Lysine side chain with (gamma-Glu)2-CO-(CH2)1) [Example 619] ) reads 6.34

Field Relative cAMP EC50 (entry YXQGTXTSDXXIXLDXKAQXXFIEXLIEGGPSSGEPPPEGE (synthetic construct; SITE 2: note = 2-Aminoisobutyric Acid; SITE 6: note = alpha-methyl-2-fluoro-L-phenylalanine; SITE 10: note = 3-(4-Pyridyl)-L-alanine; SITE 11: note = alpha-methyl-L-serine; SITE 13: note = alpha-methyl-leucine; SITE 16: note = L-ornithine; SITE 17: note = Lysine is chemically mo) [Example 698] ) reads 1.53

Need Relative cAMP EC50 for each of these binders.
1. YXQGTXTSDXXIXLDXKAAXEFIEXLLEGGPSSGAPPPSGS (synthetic construct; SITE 2: note = 2-Aminoisobutyric Acid; SITE 6: note = alpha-methyl-2-fluoro-L-phenylalanine; SITE 10: note = 3-(4-Pyridyl)-L-alanine; SITE 11: note = alpha-methyl-L-serine; SITE 13: note = alpha-methyl-leucine; SITE 16: note = L-ornithine; SITE 17: note = Lysine is chemically mo) [Example 672 (SEQ ID NO: 678)]
2. YXQGTFTSDXSQXLDKKAQXAFIEYLIEXGESSGAPPPSGE (Aib, 4Pal, αMeL, αMe4Pal; K acylated AEEA-γGlu-C18 diacid; amide; synthetic construct; SITE 2: note = 2-Aminoisobutyric Acid; SITE 10: note = 3-(4-Pyridyl)-L-alanine; SITE 13: note = alpha-methyl-leucine; SITE 17: note = Lysine is chemically modified through conjugation of the epsilon-amino group of the Lysine side chain with (2-[2-(2-Amino-ethoxy)-ethoxy]-acetyl)) [Example 227]
3. Y[Aib]QGT[αMePhe(2-F)]TSD[Phe(4-CN)]SILLDKQAQKAFIEYLLEGGPSSGEPPPSAG-NH2 (not fully specified (residue 20)) [Example 350]
4. YXQGTFTSDFSXXLDKKAQXAFIEYLIEXGESSGAPPPSGS (acylated Lys, C-terminal amide, non-natural residues; synthetic construct; SITE 2: note = 2-Aminoisobutyric Acid; SITE 12: note = L-ornithine; SITE 13: note = alpha-methyl-leucine; SITE 17: note = Lysine is chemically modified through conjugation of the epsilon-amino group of the Lysine side chain with (2-[2-(2-Amino-ethoxy)-ethoxy]-acetyl)-(gamma-Glu)) [Example 218]
5. YXQGTFTSDFSQXLDKKAQXAFIEYLLEAGPSSGAPPPSGX (synthetic construct; SITE 2: note = 2-Aminoisobutyric Acid; SITE 13: note = alpha-methyl-leucine; SITE 17: note = Lysine is chemically modified through conjugation of the epsilon-amino group of the Lysine side chain with (2-[2-(2-Amino-ethoxy)-ethoxy]-acetyl)-(gamma-Glu)-CO-(CH2) 16-CO2H; SITE 20: n) [Example 777]
6. YXQGTFTSDFSXXLDKKAQXAFIEYLLEAGPSSGAPPPSGE (synthetic construct; SITE 2: note = 2-Aminoisobutyric Acid; SITE 12: note = L-ornithine; SITE 13: note = alpha-methyl-leucine; SITE 17: note = Lysine is chemically modified through conjugation of the epsilon-amino group of the Lysine side chain with (2-[2-(2-Amino-ethoxy)-ethoxy]-acetyl)2-(gamma-Glu)) [Example 128]
7. YXQGTFTSDXSXXLDXKAQXAFIEYLIAGGPSSGEPPPSGE (Lys acylated (γ-Glu)2-C18 diacid; non-natural residues; C-terminal amide; synthetic construct; SITE 2: note = 2-Aminoisobutyric Acid; SITE 10: note = 3-(4-Pyridyl)-L-alanine; SITE 12: note = L-ornithine; SITE 13: note = alpha-methyl-leucine; SITE 16: note = L-ornithine; SITE 17: note = Lysine is chemically modified through conjugation of the epsilon-amino group of the Lys) [Example 983]

[1.19, 4.22, 10.4, 7.89, 3.89, 6.76, 4.75]

Need Relative cAMP EC50 for each of these binders.
1. YXQGTFTSDXSQXLDKKAQXAFIEYLIAGGPSSGAPPPSGE (non-natural residues; lipidated Lys; C-terminal amide; synthetic construct; SITE 2: note = 2-Aminoisobutyric Acid; SITE 10: note = 3-(4-Pyridyl)-L-alanine; SITE 13: note = alpha-methyl-leucine; SITE 17: note = Lysine is chemically modified through conjugation of the epsilon-amino group of the Lysine side chain with D-Glutamic acid-(gamma-Glu)-CO-(CH2)16) [Example 1085]
2. YXQGTXTSDXSIXLDKKAQXAFIEYLEEGGPSSGAPEPS (synthetic construct; SITE 2: note = 2-Aminoisobutyric Acid; SITE 6: note = alpha-methyl-2-fluoro-L-phenylalanine; SITE 10: note = 3-(4-Pyridyl)-L-alanine; SITE 13: note = alpha-methyl-leucine; SITE 17: note = Lysine is chemically modified through conjugation of the epsilon-amino group of the Lysine) [Example 443]
3. YXQGTFTSDFSXXLDKKAQXAFIEYLLAGGPSSGEPPPEGE (synthetic construct; SITE 2: note = 2-Aminoisobutyric Acid; SITE 12: note = L-ornithine; SITE 13: note = alpha-methyl-leucine; SITE 17: note = Lysine is chemically modified through conjugation of the epsilon-amino group of the Lysine side chain with (2-[2-(2-Amino-ethoxy)-ethoxy]-acetyl)-(gamma-Glu)) [Example 98]

1: 11.6; 2: 6.09; 3: 6.91
